- experimental-protocol: Measurement of DHAS concentration in plasma of patients with CFS given the injection intravenously
- Format: in vivo
- assay-context: human, iv, 100 mg, patient B, 100 mg intravenously daily for 14 days, 11 days, before administration
- Method: An injection containing 100 mg of a test compound was intravenously administered to two patients with CFS (A, B), continuously, for 14 days. The measurement of DHAS concentration in plasma was conducted before administration and 13 hours after administration with respect to the first and second days, while the measurement was conducted before administration with regard to the third, fifth, eighth, eleventh and fourteenth days. […]
Structures can show the parent of a compound that is named as a salt.
measurement-label: concentration at 264 h
Give the number first and the unit second.

Quick one: concentration at 264 h for C[C@]12CC[C@H](OS(=O)(=O)O)CC1=CC[C@@H]1[C@@H]2CC[C@]2(C)C(=O)CC[C@@H]12 [Sodium salt of DHAS, dehydroepiandrosterone sulfate] ? 2480 ng/mL
